Quick reference: Ratio Ki of the listed items.
species: Homo sapiens; assay: Selectivity ratio of Ki for human SERT to Ki for human DAT
Could you keep your reply to the number by itself?

// known answers, use as guide
CN1C2CCC1[C@@H](C(=O)NCCCCCCCCCCNC(=O)[C@H]1C3CCC(C[C@@H]1c1ccc(-c4ccsc4)cc1)N3C)[C@@H](c1ccc(-c3ccsc3)cc1)C2: 0.72
CN1C2CCC1[C@@H](C(=O)NCc1ccc(CCNC(=O)[C@H]3C4CCC(C[C@@H]3c3ccc(Cl)cc3)N4C)cc1)[C@@H](c1ccc(Cl)cc1)C2 (stereo partly drawn): 3.3

// returns reported Ratio Ki for input CN1C2CCC1[C@@H](C(=O)OCc1cn(CCOC(=O)[C@H]3C4CCC(C[C@@H]3c3ccc(Cl)cc3)N4C)nn1)[C@@H](c1ccc(Cl)cc1)C2 (stereo partly drawn) 1.6

* * *

species on record: Homo sapiens; experiment: Selectivity ratio of Ki for human SERT to Ki for human DAT
Quick reference: Ratio Ki of the listed items.
Could you keep your reply to the number by itself?

// known answers, use as guide
CN1C2CCC1[C@@H](C(=O)Nc1ccc(CNC(=O)[C@H]3C4CCC(C[C@@H]3c3ccc(Cl)cc3)N4C)cc1)[C@@H](c1ccc(Cl)cc1)C2 (stereo partly drawn): 74
CN1C2CCC1[C@@H](C(=O)NCc1ccc(CNC(=O)[C@H]3C4CCC(C[C@@H]3c3ccc(-c5ccsc5)cc3)N4C)cc1)[C@@H](c1ccc(-c3ccsc3)cc1)C2: 1.7

// returns reported Ratio Ki for input CN1C2CCC1[C@@H](C(=O)NCCCCCCNC(=O)[C@H]1C3CCC(C[C@@H]1c1ccc(-c4ccsc4)cc1)N3C)[C@@H](c1ccc(-c3ccsc3)cc1)C2 4

* * *

target: UniProt P23975; assay: Displacement of [125I]methyl 3-(4-iodophenyl)-8-methyl-8-aza-bicyclo[3.2.1]octane-2-carboxylate from human recombinant NET expressed in african green monkey COS1 cells by liquid scintillation counting
Sequence (P23975 whole entry): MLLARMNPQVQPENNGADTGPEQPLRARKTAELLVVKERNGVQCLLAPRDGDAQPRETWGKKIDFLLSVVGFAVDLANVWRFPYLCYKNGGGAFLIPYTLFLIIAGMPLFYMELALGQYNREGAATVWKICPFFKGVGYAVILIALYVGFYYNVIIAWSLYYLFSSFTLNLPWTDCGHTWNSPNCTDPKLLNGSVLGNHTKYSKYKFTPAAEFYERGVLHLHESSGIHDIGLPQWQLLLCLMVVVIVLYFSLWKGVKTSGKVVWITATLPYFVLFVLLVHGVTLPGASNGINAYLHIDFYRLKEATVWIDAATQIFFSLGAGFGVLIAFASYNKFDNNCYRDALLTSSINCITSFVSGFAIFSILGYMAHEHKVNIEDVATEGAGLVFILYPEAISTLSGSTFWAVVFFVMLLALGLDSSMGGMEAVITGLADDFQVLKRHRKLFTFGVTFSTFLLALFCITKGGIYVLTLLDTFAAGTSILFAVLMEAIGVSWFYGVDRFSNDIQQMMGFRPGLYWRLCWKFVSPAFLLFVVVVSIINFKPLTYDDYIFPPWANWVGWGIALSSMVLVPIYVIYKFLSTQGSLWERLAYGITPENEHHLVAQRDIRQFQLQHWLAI
measurement-name: pKi
In plain terms, pKi is the concentration in mol/L turned into minus its base-10 logarithm.

// known answers, use as guide
CN1C2CCC1[C@@H](C(=O)Nc1ccc(NC(=O)[C@H]3C4CCC(C[C@@H]3c3ccc(-c5ccsc5)cc3)N4C)cc1)[C@@H](c1ccc(-c3ccsc3)cc1)C2: 5.72
COC(=O)[C@@H]1C2CCC(C[C@@H]1c1ccc(-c3ccsc3)cc1)N2C (some centres undefined): 7.59
CN1C2CCC1[C@@H](C(=O)Nc1ccc(CNC(=O)[C@H]3C4CCC(C[C@@H]3c3ccc(Cl)cc3)N4C)cc1)[C@@H](c1ccc(Cl)cc1)C2 (some centres undefined): 6.09

In the following, a different compound is considered.
// returns reported pKi for input CN1C2CCC1[C@@H](C(=O)NCCCCCCNC(=O)[C@H]1C3CCC(C[C@@H]1c1ccc(-c4ccsc4)cc1)N3C)[C@@H](c1ccc(-c3ccsc3)cc1)C2 5.66

* * *

biological target: Sodium-dependent serotonin transporter (Homo sapiens, UniProt P31645); experiment: Displacement of [125I]methyl 3-(4-iodophenyl)-8-methyl-8-aza-bicyclo[3.2.1]octane-2-carboxylate from human recombinant SERT expressed in african green monkey COS1 cells by liquid scintillation counting
Sequence (P31645 whole entry): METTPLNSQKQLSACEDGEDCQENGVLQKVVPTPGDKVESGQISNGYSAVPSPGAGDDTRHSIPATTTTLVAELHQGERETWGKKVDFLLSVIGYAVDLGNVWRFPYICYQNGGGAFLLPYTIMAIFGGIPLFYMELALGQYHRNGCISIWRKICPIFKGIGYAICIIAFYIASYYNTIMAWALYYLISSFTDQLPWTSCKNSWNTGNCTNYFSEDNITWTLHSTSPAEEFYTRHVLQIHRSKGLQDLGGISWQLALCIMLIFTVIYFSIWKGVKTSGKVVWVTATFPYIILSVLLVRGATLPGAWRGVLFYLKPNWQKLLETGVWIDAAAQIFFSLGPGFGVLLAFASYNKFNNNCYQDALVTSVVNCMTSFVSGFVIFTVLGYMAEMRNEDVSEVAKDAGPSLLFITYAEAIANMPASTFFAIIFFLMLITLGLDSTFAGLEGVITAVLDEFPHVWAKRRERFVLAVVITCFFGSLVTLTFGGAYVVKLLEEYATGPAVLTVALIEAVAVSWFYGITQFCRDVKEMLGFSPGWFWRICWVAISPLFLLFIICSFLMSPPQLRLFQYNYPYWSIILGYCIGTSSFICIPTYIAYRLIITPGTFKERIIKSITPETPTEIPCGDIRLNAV
Quick reference: Ki of the listed items.
Your answer is read as nM, so omit the unit and give the number.

// known answers, use as guide
CN1C2CCC1[C@@H](C(=O)N[C@H]1CC[C@H](NC(=O)[C@H]3C4CCC(C[C@@H]3c3ccc(Cl)cc3)N4C)CC1)[C@@H](c1ccc(Cl)cc1)C2: 4000
COC(=O)[C@@H]1C2CCC(C[C@@H]1c1ccc(-c3ccsc3)cc1)N2C (some centres not stated): 0.58
CN1C2CCC1[C@@H](C(=O)NCCC1CCN(C(=O)[C@H]3C4CCC(C[C@@H]3c3ccc(Cl)cc3)N4C)CC1)[C@@H](c1ccc(Cl)cc1)C2 (some centres not stated): 2500
CN1C2CCC1[C@@H](C(=O)Nc1ccc(CCNC(=O)[C@H]3C4CCC(C[C@@H]3c3ccc(-c5ccsc5)cc3)N4C)cc1)[C@@H](c1ccc(-c3ccsc3)cc1)C2 (some centres not stated): 340
CN1C2CCC1[C@@H](C(=O)NCc1cccc(CNC(=O)[C@H]3C4CCC(C[C@@H]3c3ccc(-c5ccsc5)cc3)N4C)c1)[C@@H](c1ccc(-c3ccsc3)cc1)C2: 860

// returns reported Ki for input CN1C2CCC1[C@@H](C(=O)NCc1ccc(CCNC(=O)[C@H]3C4CCC(C[C@@H]3c3ccc(Cl)cc3)N4C)cc1)[C@@H](c1ccc(Cl)cc1)C2 (some centres not stated) 65

// returns reported Ki for input COC(=O)[C@@H]1C2CCC(C[C@@H]1c1ccc(I)cc1)N2C (some centres not stated) 4.2
